meta.source: PubChem BioAssay (NCI)

Assign TGI to each entry below.
System: HS 578T breast
Experiment: NCI tumour cell line growth inhibition, 48 h

Some solved entries appear below for comparison.
Clc1nc(Cl)c(-c2ccccc2)c(Cl)n1 : > 100 µM
CN(C(=O)c1ccncc1)c1ccccc1 : > 100 µM
O=C(CCCN1CCC2(CC1)CC(=O)N(N1CCCCCC1)C2=O)c1ccc(F)cc1 : > 100 µM
CCNCCNc1cc(C2CCCCC2)c(C#N)c2nc3ccccc3n12 : 5.42 µM
CCN(CC)c1ccc(C(=N)c2ccc(N(C)C)cc2)cc1 : 2.67 µM
CC(=O)N1N(c2ccc([N+](=O)[O-])cc2)C(=O)C1(C)C : > 100 µM

For every item below, please supply its TGI.
1. Nc1cc(N)c2nc(-c3ccccc3)c(NCc3ccc(F)cc3)nc2c1
2. CC1(C)OC(=O)C2(O1)C(=O)C1CCCCC12 (stereo unspecified)

Response:
["> 100 µM", "> 100 µM"]

---

Test system: TK-10 renal
Experiment: NCI tumour cell line growth inhibition, 48 h
measurementKind: TGI

Some solved entries appear below for comparison.
CC(=O)Nc1ccc(/C=C/C(=O)c2sc(-c3nc(C)c(C(=O)/C=C/c4ccc(NC(C)=O)cc4)s3)nc2C)cc1 : > 100 µM
CCCCNC(=O)NS(=O)(=O)c1ccc(N2N=C(c3cc(C)ccc3C)CC2c2cc(OC)c(OC)c(OC)c2)cc1 (stereo not given) : 10.7 µM
C=C1CCC2C3(C)COC(c4ccccc4Br)OC3CCC2(C)C1C/C=C1/C(=O)OCC1OC(C)=O (stereo not given) : 3.67 µM
CCN(CC)c1ccc(C(=N)c2ccc(N(C)C)cc2)cc1 : 8.02 µM
O=C(COc1cccc(/C=C2\COc3ccc(Cl)cc3C2=O)c1)c1ccc(Cl)cc1 : 28.7 µM

For every item below, please supply its TGI.
1. CN(CCCN(C)CCc1ccc(Cl)c(Cl)c1)CCCN1CCCC1
2. C=C1CCc2occ(C)c2C2C1C1=C(CC(C)C1=O)C1OC12C (stereo not given)
3. COc1ccc(-c2cc(=O)c3cc4c(cc3[nH]2)OCO4)cc1
4. C1CCOC2(CCC3(CC2)OCCCCO3)OC1

Response:
1: 5.52 µM; 2: > 100 µM; 3: > 100 µM; 4: > 100 µM

For every item below, please supply its TGI.
1. CCOP(=O)(OCC)C1=C(c2ccccc2)OC(N)=C(C#N)C1c1ccc(Cl)cc1 (stereo not given)
2. O=c1c2cn[nH]c2nc2scc(-c3ccc(Cl)cc3)n12

Response:
1. > 100 µM
2. > 100 µM

For every item below, please supply its TGI.
1. O=C(c1cccnc1)c1cc(-c2ccccn2)c(=O)n2ccccc12
2. COc1cc(C)c(O)c(C(=O)O)c1
3. COc1cc(Oc2nc3c(N)cc(C(F)(F)F)cc3nc2-c2ccccc2)cc(OC)c1OC
4. CC1=N[C@](C)(C2CC3C=CC2C3=O)COC1=O (stereo not given in full)
5. O=C1CC(C(=O)N2CCCCC2)n2c(=O)n(-c3ccccc3)c(=O)n2C1 (stereo not given)
6. CN(C)c1ccc(C(=C2C=CC(=[N+](C)C)C=C2)c2ccc(N(C)C)cc2)cc1
7. COc1cc2c(cc1OC)C(C)N(C)c1c-2c(OC(C)=O)cc2cc(OC)c(OC)cc12 (stereo not given)
8. Cc1cn2c(/C=N/Nc3ccccn3)c(-c3ccc(Cl)c([N+](=O)[O-])c3)nc2s1

Response:
1: > 100 µM; 2: > 100 µM; 3: > 100 µM; 4: > 100 µM; 5: > 100 µM; 6: 0.864 µM; 7: > 100 µM; 8: 47.3 µM

For every item below, please supply its TGI.
1. COc1cc(/C=C/C(=O)c2sc(NNC(C)=O)nc2C)ccc1O
2. c1ccc2cc(CNCCOCCOCCNCc3ccc4ccccc4c3)ccc2c1
3. O=c1[nH]c(-c2ccc(-c3nc4cc([N+](=O)[O-])ccc4c(=O)[nH]3)cc2)nc2cc([N+](=O)[O-])ccc12
4. CCSc1nc(=[N+]2CCCC2)ss1
5. CCN(CC)C(=S)N=Nc1c(O)[nH]c2ccccc12
6. CS(=O)(=O)Nc1ccc(N=Cc2c(O)[nH]c3ccccc23)cc1

Response:
> 100 µM
3.04 µM
> 100 µM
> 100 µM
5.07 µM
> 25 µM

For every item below, please supply its TGI.
1. CCOC(=O)C1=C(Nc2cccc3ccccc23)OC/C1=N\NC(=O)c1ccccc1O
2. CC(C)CCc1n[nH]c(=O)n1/N=C\c1ccccc1
3. O=C(Nc1nc(=S)c2c(ncn2CCO)[nH]1)c1ccccc1

Response:
1: > 100 µM; 2: > 100 µM; 3: > 100 µM

For every item below, please supply its TGI.
1. N=C(N)c1ccc(COc2ccccc2OCc2ccc(C(=N)N)cc2)cc1
2. CC1(C)CC[C@]2(C(=O)N3CCOCC3)CC[C@]3(C)C(=CC[C@@H]4[C@@]5(C)C/C(=C/c6ccncc6)C(=O)C(C)(C)[C@@H]5CC[C@]43C)[C@@H]2C1
3. Cc1ccc(S(=O)(=O)NNC2(NS(=O)(=O)c3ccc(Cl)cc3)C(Cl)=C(Cl)C(=O)c3ccccc32)cc1 (stereo not given)

Response:
["> 100 µM", "> 100 µM", "30.5 µM"]

For every item below, please supply its TGI.
1. COC(=O)C1CCC(=O)N1C(c1ccccc1)c1cc(OC)c(OC)c(OC)c1 (stereo not given)
2. O=C1OCC/C1=C/c1ccc(N=Nc2c(O)ccc3ccccc23)cc1
3. CC12CC(OC(=O)[C@]1(C)O)[C@@H]([C@]1(O)CC[C@H]3[C@@H]4C[C@H]5O[C@]56[C@@H](O)C=CC(=O)[C@]6(C)[C@H]4CC[C@@]31C)C2 (stereo not given in full)
4. NC(CCC(=O)O)(CCC(=O)O)CCC(=O)O
5. CC(C)c1ccc(Nc2nccc(-c3cnn4ncccc34)n2)cc1
6. N.N.NCCCCCCN.O=C([O-])CC(=O)[O-].O=C([O-])CC(=O)[O-].[Pt+4].[Pt+4]

Response:
["> 100 µM", "35.3 µM", "20.2 µM", "> 100 µM", "3.17 µM", "> 100 µM"]

For every item below, please supply its TGI.
1. COc1ccc(-c2c3c(nc4nc(SC)nc(SC)c24)CCCC3)cc1OC
2. COc1ccc(C(=O)/C=C/c2cccnc2)cc1OC

Response:
1. > 100 µM
2. 29.1 µM

Query: Entry CCCCCCCOc1c(OC)cc(C2CC(=O)Nc3c2c(C)nn3-c2nc3ccccc3[nH]2)cc1OC (stereo not given) has what TGI?
Response: > 100 µM
